Measured Bliss excess by item
System: HCC1395 (Breast Carcinoma)
ASSAY DETAILS: Bliss excess, mean over the matrix (fraction); higher = more synergy
No unit in the answer, please; the number alone is enough.

get_value(item= CCc1c2c(nc3ccc(O)cc13)-c1cc3c(c(=O)n1C2)COC(=O)[C@]3(O)CC [SN-38] + CN(C)CCCOc1ccc(-c2ccc3ncc4c(c3c2)n(C2CCOCC2)c(=O)n4C)cn1 [AZD0156] (first compound max 0.3 µM, 7x7, partner max 1 µM) , readout=Bliss excess) returns -0.0024

Lab note: measured Bliss excess of CN(CCO)CC[C@H](CSc1ccccc1)Nc1ccc(S(=O)(=O)NC(=O)c2ccc(N3CCC([C@@H](O)c4ccccc4-c4ccc(Cl)cc4)CC3)cc2)cc1S(=O)(=O)C(F)(F)F [AZD4320] + C[C@@H]1COCCN1C2=NC(=NC(=C2)C3(CC3)[S@](=N)(=O)C)C4=C5C=CNC5=NC=C4 [AZD6738] (first compound max 1 µM, 7x7, partner max 10 µM) was 0.0007

Continuing:
Record CC1(C)CCC(CN2CCN(c3ccc(C(=O)NS(=O)(=O)c4ccc(NCC5CCOCC5)c([N+](=O)[O-])c4)c(Oc4cnc5[nH]ccc5c4)c3)CC2)=C(c2ccc(Cl)cc2)C1 [Venetoclax] + CN(C)CCCOc1ccc(-c2ccc3ncc4c(c3c2)n(C2CCOCC2)c(=O)n4C)cn1 [AZD0156] (first compound max 1 µM, 7x7, partner max 1 µM) . Reported Bliss excess: -0.0304

response.value for Cc1c2c(nn1C)CSCc1cc(n(C)n1)CSc1cc(c3ccccc3c1)OCCCc1c(C(=O)O)n(C)c3c-2c(Cl)ccc13 [AZD5991] + CC1(C)CCC(CN2CCN(c3ccc(C(=O)NS(=O)(=O)c4ccc(NCC5CCOCC5)c([N+](=O)[O-])c4)c(Oc4cnc5[nH]ccc5c4)c3)CC2)=C(c2ccc(Cl)cc2)C1 [Venetoclax] (first compound max 1 µM, 7x7, partner max 1 µM) (field: Bliss excess) = -0.019

The measured Bliss excess associated with Cc1cc2ncnn2cc1Nc1ncc2c(n1)n(C1CCOCC1)c(=O)n2C [AZD7648] + COc1cc([C@@H]2c3cc4c(cc3[C@@H](O[C@@H]3O[C@@H]5CO[C@@H](C)O[C@H]5[C@H](O)[C@H]3O)[C@H]3COC(=O)[C@H]23)OCO4)cc(OC)c1O [Etoposide] (first compound max 10 µM, 7x7, partner max 10 µM) reads -0.013

* * *

Test system: GCT (Other Solid Carcinomas)
ASSAY DETAILS: combination Emax (second highest fraction inhibited in the dose matrix, 72 h); higher = more inhibition; extreme values may be limits of the assay
MEASURED METRIC: combination Emax
Just the number, please, no unit attached.

# annotated cases, reported combination Emax shown
combination Emax reported for this molecule CC1(C)CCC(CN2CCN(c3ccc(C(=O)NS(=O)(=O)c4ccc(NCC5CCOCC5)c([N+](=O)[O-])c4)c(Oc4cnc5[nH]ccc5c4)c3)CC2)=C(c2ccc(Cl)cc2)C1 [Venetoclax] + C[C@@H](Nc1cc(F)cc(F)c1)c1cc(C(=O)N(C)C)cc2c(=O)cc(N3CCOCC3)oc12 [AZD8186] (first compound max 1 µM, 7x7, partner max 3 µM) : 0.32

// COc1nnc2ccc(N3CCC(c4ccc(OCCN5CCN(C)C(=O)[C@H]5C)cc4)CC3)nn12 [AZD5153] + CCN(CCO)CCCOc1ccc2c(Nc3cc(CC(=O)Nc4cccc(F)c4)[nH]n3)ncnc2c1 [AZD2811] (first compound max 1 µM, 7x7, partner max 1 µM) : combination Emax value = 0.568

Turning now to a further record.
combination Emax measured on Cc1c2c(nn1C)CSCc1cc(n(C)n1)CSc1cc(c3ccccc3c1)OCCCc1c(C(=O)O)n(C)c3c-2c(Cl)ccc13 [AZD5991] + C[C@@H]1COCCN1C2=NC(=NC(=C2)C3(CC3)[S@](=N)(=O)C)C4=C5C=CNC5=NC=C4 [AZD6738] (first compound max 1 µM, 7x7, partner max 10 µM) = 0.411

* * *

Test system: HCC1428 (Breast Carcinoma)
ASSAY DETAILS: Bliss excess, mean over the matrix (fraction); higher = more synergy
Each entry below lists one item and its recorded Bliss excess value.

Known Bliss excess results, listed for orientation:
// recorded Bliss excess for Cc1c2c(nn1C)CSCc1cc(n(C)n1)CSc1cc(c3ccccc3c1)OCCCc1c(C(=O)O)n(C)c3c-2c(Cl)ccc13 [AZD5991] + C1CN(CCC1(C(=O)N[C@@H](CCO)C2=CC=C(C=C2)Cl)N)C3=NC=NC4=C3C=CN4 [Capivasertib] (first compound max 1 µM, 7x7, partner max 3 µM) : 0.0136

For reference, reported Bliss excess for Cc1c2c(nn1C)CSCc1cc(n(C)n1)CSc1cc(c3ccccc3c1)OCCCc1c(C(=O)O)n(C)c3c-2c(Cl)ccc13 [AZD5991] + Cn1cnc2c(F)c(Nc3ccc(Br)cc3Cl)c(C(=O)NOCCO)cc21 [Selumetinib] (first compound max 1 µM, 7x7, partner max 3 µM) stands at -0.0185

Others:
Form field Bliss excess, entry CN(CCO)CC[C@H](CSc1ccccc1)Nc1ccc(S(=O)(=O)NC(=O)c2ccc(N3CCC([C@@H](O)c4ccccc4-c4ccc(Cl)cc4)CC3)cc2)cc1S(=O)(=O)C(F)(F)F [AZD4320] + C[C@@H](Nc1cc(F)cc(F)c1)c1cc(C(=O)N(C)C)cc2c(=O)cc(N3CCOCC3)oc12 [AZD8186] (first compound max 1 µM, 7x7, partner max 3 µM) : 0.0149

* * *

Listed below: combination Emax values for each entry.
System: NCI-H716 (Colorectal Carcinoma)
ASSAY DETAILS: combination Emax (second highest fraction inhibited in the dose matrix, 72 h); higher = more inhibition; extreme values may be limits of the assay
Output: the number by itself.

Guide cases for combination Emax, answers given:
Kindly note the recorded combination Emax for NC1(C(=O)N[C@@H](CCO)c2ccc(Cl)cc2)CCN(c2ncnc3[nH]ccc23)CC1 [Capivasertib] + Cn1cnc2c(F)c(Nc3ccc(Br)cc3Cl)c(C(=O)NOCCO)cc21 [Selumetinib] (first compound max 10 µM, 7x7, partner max 10 µM) , which is 0.783

Value of combination Emax reported for the compound C[C@@H](c1ccc2nccn2c1)n1nnc2ncc(-c3cnn(C)c3)nc21 [Savolitinib] + CN(CC[C@H](CSC1=CC=CC=C1)NC2=C(C=C(C=C2)S(=O)(=O)NC(=O)C3=CC=C(C=C3)N4CCC(CC4)[C@H](C5=CC=CC=C5C6=CC=C(C=C6)Cl)O)S(=O)(=O)C(F)(F)F)CCO [AZD4320] (first compound max 1 µM, 7x7, partner max 1 µM) is 0.189

Shift focus to the following entry.
Documented combination Emax of CCc1c2c(nc3ccc(O)cc13)-c1cc3c(c(=O)n1C2)COC(=O)[C@]3(O)CC [SN-38] + CN(C)CCCOc1ccc(-c2ccc3ncc4c(c3c2)n(C2CCOCC2)c(=O)n4C)cn1 [AZD0156] (first compound max 0.3 µM, 7x7, partner max 1 µM) : 0.202

* * *

Test system: NCI-H716 (Colorectal Carcinoma)
ASSAY DETAILS: combination Emax (second highest fraction inhibited in the dose matrix, 72 h); higher = more inhibition; extreme values may be limits of the assay
MEASURED METRIC: combination Emax
Provide a numeric answer; units are not to be included.

Examples from the recorded data:
Short answer for Cn1cnc2c(F)c(Nc3ccc(Br)cc3Cl)c(C(=O)NOCCO)cc21 [Selumetinib] + CCN(CCO)CCCOc1ccc2c(Nc3cc(CC(=O)Nc4cccc(F)c4)[nH]n3)ncnc2c1 [AZD2811] (first compound max 10 µM, 7x7, partner max 1 µM) : combination Emax was 0.428

response.value for NC1(C(=O)N[C@@H](CCO)c2ccc(Cl)cc2)CCN(c2ncnc3[nH]ccc23)CC1 [Capivasertib] + CC(=O)c1c(C)c2cnc(Nc3ccc(N4CCNCC4)cn3)nc2n(C2CCCC2)c1=O [Palbociclib] (first compound max 10 µM, 7x7, partner max 10 µM) (field: combination Emax) = 0.49

Sample Cc1cc2ncnn2cc1Nc1ncc2c(n1)n(C1CCOCC1)c(=O)n2C [AZD7648] + CCN(CCO)CCCOc1ccc2c(Nc3cc(CC(=O)Nc4cccc(F)c4)[nH]n3)ncnc2c1 [AZD2811] (first compound max 10 µM, 7x7, partner max 1 µM) ; combination Emax observed: 0.336

Now, please, on to the next molecule.
Record summary for Cc1c2c(nn1C)CSCc1cc(n(C)n1)CSc1cc(c3ccccc3c1)OCCCc1c(C(=O)O)n(C)c3c-2c(Cl)ccc13 [AZD5991] + CC1(C)CCC(CN2CCN(c3ccc(C(=O)NS(=O)(=O)c4ccc(NCC5CCOCC5)c([N+](=O)[O-])c4)c(Oc4cnc5[nH]ccc5c4)c3)CC2)=C(c2ccc(Cl)cc2)C1 [Venetoclax] (first compound max 1 µM, 7x7, partner max 1 µM) : reported combination Emax = 0.176
